Entries with reported IC50 on Voltage-gated inwardly rectifying potassium channel KCNH2 (Homo sapiens, UniProt Q12809)
Sequence (Q12809 whole entry): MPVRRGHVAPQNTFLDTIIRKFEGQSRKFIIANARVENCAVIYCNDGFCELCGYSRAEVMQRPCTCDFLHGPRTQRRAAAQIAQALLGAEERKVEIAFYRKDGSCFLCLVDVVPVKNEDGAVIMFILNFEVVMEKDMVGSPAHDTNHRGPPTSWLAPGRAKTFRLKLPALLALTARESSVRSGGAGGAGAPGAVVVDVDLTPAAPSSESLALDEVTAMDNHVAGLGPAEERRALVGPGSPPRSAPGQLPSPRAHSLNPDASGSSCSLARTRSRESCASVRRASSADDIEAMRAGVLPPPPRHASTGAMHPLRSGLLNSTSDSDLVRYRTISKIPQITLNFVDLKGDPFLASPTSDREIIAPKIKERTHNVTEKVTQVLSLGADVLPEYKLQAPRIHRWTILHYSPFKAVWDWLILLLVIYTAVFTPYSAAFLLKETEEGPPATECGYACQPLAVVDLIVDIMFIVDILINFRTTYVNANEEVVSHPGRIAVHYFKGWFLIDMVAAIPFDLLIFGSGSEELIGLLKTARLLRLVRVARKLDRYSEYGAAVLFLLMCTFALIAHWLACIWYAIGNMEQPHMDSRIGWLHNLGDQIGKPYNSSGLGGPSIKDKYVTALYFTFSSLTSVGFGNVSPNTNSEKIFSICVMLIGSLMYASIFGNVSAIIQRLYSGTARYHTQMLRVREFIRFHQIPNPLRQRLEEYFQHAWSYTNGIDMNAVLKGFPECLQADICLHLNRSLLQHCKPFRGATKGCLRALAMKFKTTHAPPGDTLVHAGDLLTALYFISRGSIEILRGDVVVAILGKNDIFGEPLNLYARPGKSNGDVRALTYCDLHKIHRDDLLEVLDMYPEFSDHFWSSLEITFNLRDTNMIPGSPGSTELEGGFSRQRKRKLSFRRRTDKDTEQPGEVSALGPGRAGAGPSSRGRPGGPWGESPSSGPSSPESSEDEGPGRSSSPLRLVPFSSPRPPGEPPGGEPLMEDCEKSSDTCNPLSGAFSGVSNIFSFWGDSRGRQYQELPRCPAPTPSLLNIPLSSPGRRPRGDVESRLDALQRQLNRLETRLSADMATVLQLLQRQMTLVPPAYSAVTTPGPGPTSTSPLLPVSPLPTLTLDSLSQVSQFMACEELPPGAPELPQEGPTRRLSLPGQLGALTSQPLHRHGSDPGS
// units = µM; emit number, no label

Cc1cc(=O)oc2c(Cl)c(OCCCCN3CCC(c4noc5cc(F)ccc45)CC3)ccc12 :: 1.59
Cc1c(C)c2ccc(OCCCCN3CCC(c4noc5cc(F)ccc45)CC3)cc2oc1=O :: 0.195
Cc1cc(=O)oc2c(C)c(OCCCCN3CCC(c4noc5cc(F)ccc45)CC3)ccc12 :: 0.226
Cc1cc(=O)oc2cc(OCCCCN3CCC(c4noc5cc(F)ccc45)CC3)ccc12 :: 0.159

Moving on to another compound below.
Name the recorded IC50 for `COc1ccccc1N1CCN(CCCCOc2ccc3c(C)cc(=O)oc3c2)CC1` .
0.031

All figures here come from ChEMBL document CHEMBL2385071.
